- Species on record: Homo sapiens
- Protocol Summary: Inhibition of human GALK1 K252A/E253A double mutant relative to control
- Design: concentration or dose not given beside the values
- Stated Conditions: concentration not given here
Parameter: inhibition (%)

Compound: CC1=C(C(=O)Nc2cc(C(=O)O)ccn2)C(c2ccc(Cl)cc2Cl)N=C(Nc2nc3ccc(F)cc3o2)N1 (centres undefined)
inhibition (%): 85

Compound: CC1=C(C(=O)Nc2cc(C(=O)O)ccn2)C(c2ccc(C)cc2Cl)N=C(Nc2nc3ccc(F)cc3o2)N1 (racemic)
inhibition (%): 100

Compound: CC1=C(C(=O)Nc2cc(C(=O)O)ccn2)C(c2ccccc2Cl)N=C(Nc2nc3ccccc3o2)N1 (racemic)
inhibition (%): 88

Compound: COc1cccc2nc(NC3=NC(c4ccccc4Cl)C(C(=O)Nc4cc(C(=O)O)ccn4)=C(C)N3)oc12 (centres undefined)
inhibition (%): 80

---

- Protocol Summary: Stability of compound in rat microsomes assessed as half-life
- Type: ADME, Microsome
Readings of half-life for the listed compounds

A selection of reference data follows.
Compound: CC1=C(C(=O)Nc2cccc(CN)c2)C(c2ccccc2Cl)N=C(Nc2nc3ccccc3o2)N1 (centres undefined)
half-life: > 30 min
//
Compound: CC1=C(C(=O)NCc2cnn(Cc3ccccc3)c2)C(c2ccc(C)cc2Cl)N=C(Nc2nc3ccc(F)cc3o2)N1 (centres undefined)
half-life: 2.74 min

# get_value(readout='half-life', item= CC1=C(C(=O)Nc2cc(C(=O)O)ccn2)C(c2ccccc2Cl)N=C(Nc2nc3cccc(C(F)(F)F)c3o2)N1 (centres undefined) ) > 30 min

Entry CC1=C(C(=O)Nc2ncc(CO)s2)C(c2ccccc2Cl)N=C(Nc2nc3ccccc3o2)N1 (centres undefined) please > 30 min

---

- Protocol Summary: Inhibition of recombinant mouse GALK1 using ATP as substrate incubated for 1 hr and measured by Kinase-Glo assay
- Stated Conditions: read-out: IC50
Parameter: IC50 (µM)

Molecule: CC1=C(C(=O)NCc2cnn(CC(F)(F)F)c2)C(c2ccc(C)cc2Cl)N=C(Nc2nc3ccc(F)c(N)c3o2)N1 (stereo not drawn)
Parameter: IC50
Recorded Measurement: 3.06
//
Molecule: CC1=C(C(=O)Nc2cc(C(=O)O)ccn2)C(c2ccccc2Cl)N=C(Nc2nc3cccc(Cl)c3o2)N1 (stereo not drawn)
Parameter: IC50
Recorded Measurement: 9.68
//
Molecule: CC1=C(C(=O)Nc2ccc(CN)cc2)C(c2ccccc2Cl)N=C(Nc2nc3ccccc3o2)N1 (stereo not drawn)
Parameter: IC50
Recorded Measurement: 4.32
//
Molecule: CNCCNC(=O)C1=C(C)NC(Nc2nc3ccc(F)cc3o2)=NC1c1ccccc1Cl (stereo not drawn)
Parameter: IC50
Recorded Measurement: 6.11
//
Molecule: CC1=C(C(=O)Nc2cc(C(=O)O)ccn2)[C@H](c2ccccc2Cl)N=C(Nc2nc3ccccc3o2)N1
Parameter: IC50
Recorded Measurement: 3.43

[P] COc1ccc([C@@H]2N=C(Nc3nc4cccc(N)c4o3)NC(C)=C2C(=O)Nc2cc(C(=O)O)ccn2)c(Cl)c1
[Q] COC(=O)c1cccc(NC(=O)C2=C(C)NC(Nc3nc4ccccc4o3)=NC2c2ccccc2Cl)n1 (stereo not drawn)
[R] CC1=C(C(=O)Nc2cc(C(=O)O)ccn2)[C@H](c2ccc(C)cc2Cl)N=C(Nc2nc3ccc(F)cc3o2)N1
Please list these in order of increasing IC50. Thank you! Please write the labels in the order that was asked for. R, P, Q
(R: 1.37 µM, P: 2.43 µM, Q: 12.2 µM)
